# credit: patent US8771953B2

Tested on: 5-HT2cR mRNA
Assay: Editing profile of 5-HT2cR mRNA isoforms by CE-SSCP (nested PCR) in SH-SY5Y cells; enzyme activity indexes worked out from the profile
Type: cell-based, human
Details: Homo sapiens; SH-SY5Y, 10 micromolar, 24 hours; read-out: ENZYME ACTIVIY INDEX (% of variation) ADARI
measured-endpoint: activation at 10 µM (%)
One number for each entry, in %.

Example entries and their recorded answers appear below.
| compound | target-or-test-system | activation at 10 µM (%) |
| --- | --- | --- |
| NS(=O)(=O)Cc1noc2ccccc12 [Zonisamide] | 5-HT2cR mRNA | 11.5 |
| NC(=O)OCC(COC(N)=O)c1ccccc1 [Felbamate] | 5-HT2cR mRNA | 2.4 |
| CC1(C)O[C@@H]2[C@@H](CO[C@@]3(COS(N)(=O)=O)OC(C)(C)O[C@@H]23)O1 [Topiramate] | 5-HT2cR mRNA | 8 |
| Cc1c(C(=O)NN2CCCCC2)nn(-c2ccc(Cl)cc2Cl)c1-c1ccc(Cl)cc1 [Rimonabant] | 5-HT2cR mRNA | 11.3 |
| NC(=O)N1c2ccccc2CC(=O)c2ccccc21 [Oxcarbazepine] | 5-HT2cR mRNA | -3.9 |
| CC[C@@H](C(N)=O)N1CCCC1=O [Levetiracetam] | 5-HT2cR mRNA | 2.8 |
| CC(NC(C)(C)C)C(=O)c1cccc(Cl)c1 (centres unmarked) [Bupropion] | 5-HT2cR mRNA | -8.9 |
| Nc1nnc(-c2cccc(Cl)c2Cl)c(N)n1 [Lamotrigine] | 5-HT2cR mRNA | 0.1 |
| NC(=O)N1c2ccccc2C=Cc2ccccc21 [Carbamazepine] | 5-HT2cR mRNA | 3 |
| O=c1n(CCCN2CCN(c3cccc(Cl)c3)CC2)nc2ccccn12 [Trazodone] | 5-HT2cR mRNA | 12.9 |

Attention now turns to another entry.
Lookup: Which activation at 10 µM value belongs to CN(C)CCCC1(c2ccc(F)cc2)OCc2cc(C#N)ccc21 (centres unmarked) [Citalopram] ?
Found: 5.3
